# assayed-system: UniProt:P21333
# test-summary: FITC-NLX-based FLNA screening assay (inhibition of FITC-naloxone binding to Bn-VAKGL on streptavidin plates)
# measurement-parameters: read-out: Percent Binding Inhibition, FLNA-binding compound 1 μM; 10 nM FITC-NLX
measured-property: inhibition at 1 µM (%)
Numbers only, in %.

// each compound listed below needs its inhibition at 1 µM
1. CC1CCC(C(C)C)C(OCC(O)CN2CCC2)C1 (centres unmarked)
2. C=CCN1CC[C@]23c4c5ccc(O)c4O[C@H]2C(=O)CC[C@@]3(O)[C@H]1C5 [Naloxone Control, naloxone, reference compound]
3. CCN(CC)CC(O)COC1CC(C)CCC1C(C)C (centres unmarked)
4. OC(COc1ccc(Br)c(F)c1)CN1CCCCC1 (centres unmarked)
5. CC1CCC(C(C)C)C(OCC(O)CN(C(C)C)C(C)C)C1 (centres unmarked)
6. COc1ccc(C(=O)CC2c3c(cc4c(c3OC)OCO4)CC[N+]2(C)C)cc1 (centres unmarked)

Output:
1. 55
2. 50.9
3. 54.5
4. 42.1
5. 56.8
6. 47.7

// each compound listed below needs its inhibition at 1 µM
1. O=S(=O)(c1cccc2cccnc12)N1CCC2(CC1)OCCN2S(=O)(=O)c1cccc2cccnc12 [Compound C0143M]
2. COc1cc(CC(=O)CC2c3c(cc4c(c3OC)OCO4)CC[N+]2(C)C)cc(OC)c1OC (centres unmarked)

Output:
[57.8, 52.8]
